These entries and their values trace back to patent US20250326712A1.

Listing of entries alongside the reported PDI.
assay: LNP size and polydispersity measured with a Zetasizer Nano; assay type: physicochemical; conditions: LNP: ionizable lipid/DSPC/cholesterol/DMG-PEG2000 about 50/10/38.5/1.5, eGFP mRNA, dialyzed against TBS
The answer should be a number; do not append a unit.

INSERT INTO assay_data (compound, endpoint_result) VALUES
  ('CCCCCC/C=C\COC(=O)CCCCCCCN(CCCCCCCC(=O)OC(CCCCCCCC)CCCCCCCC)C(=O)OCCSSCCOC(=O)NCCN(C)C [ETG-51]', 0.119),
  ('CCCCCCCCC(CCCCCCCC)OC(=O)CCCCCCCN(CCCCCC(=O)OC(CCCCCCCC)CCCCCCCC)C(=O)OCCSSCCOC(=O)NCCN1CCCCCC1 [ETG-58]', 0.086);

Reported PDI, compound CCCCCCCCC(CC)OC(=O)CCCCCCCN(CCCCCCCC(=O)OC(CCCCCCCC)CCCCCCCC)C(=O)OCCSSCCOC(=O)NCCN(C)C (stereo not drawn) [ETG-55] : ____ 0.123

* * *

Assay: mRNA encapsulation by Ribogreen RNA assay
Format: physicochemical
Conditions: LNP: ionizable lipid/DSPC/cholesterol/DMG-PEG2000 about 50/10/38.5/1.5, eGFP mRNA, mRNA/ionizable lipid 1/10
Description: Lipid based nanoparticles were produced by microfluidic mixing of an mRNA solution in sodium acetate buffer (100 mM, pH 4) and lipid solution in a 2:1 volume ratio at a speed of 16 mL/min using the NanoAssemblr Benchtop (Precision Nanosystems). […] Size, polydispersity and zeta potential were measured with a Zetasizer Nano (Malvern). mRNA encapsulation was measured by standard Ribogreen RNA assay (Invitrogen).
Listing of entries alongside the reported % encap.
State the answer as a number, implicitly in %.

Use the examples below as a reference point.
INSERT INTO measurements (molecule, endpoint_result) VALUES
  ('CCCCCCCCC(CC)OC(=O)CCCCCCCN(CCCCCCCC(=O)OC(CCCCCCCC)CCCCCCCC)C(=O)OCCSSCCOC(=O)NCCN1CCCCCC1 (stereo not drawn)', 98),
  ('CCCCCCCC/C=C\CCCCCCCC(=O)OCC(CNC(=O)OCCSSCCOC(=O)NCCN1CCCCCC1)OC(=O)CCCCCCC/C=C\CCCCCCCC (stereo not drawn) [ETG-23, reference compound]', 97),
  ('CCCCCCCCC(CCCCCCCC)OC(=O)CCCCCCCN(CCCCCC(=O)OC(CCCCCCCC)CCCCCCCC)C(=O)OCCSSCCOC(=O)NCCN(C)C', 95),
  ('CCCCCCCCC(CCCCCCCC)OC(=O)CCCCCCCN(CCCCCC(=O)OC(CCCCCCCC)CCCCCCCC)C(=O)OCCSSCCOC(=O)NCCN1CCCCCC1', 98);

Reported % encap, molecule CCCCCCCCCOC(=O)CCCCCCCN(CCCCCCCC(=O)OC(CCCCCCCC)CCCCCCCC)C(=O)OCCSSCCOC(=O)NCCN(C)C : ____ 97

Reported % encap, molecule CCCCCC/C=C\COC(=O)CCCCCCCN(CCCCCCCC(=O)OC(CCCCCCCC)CCCCCCCC)C(=O)OCCSSCCOC(=O)NCCN1CCCCCC1 : ____ 97

* * *

Listing of entries alongside the reported size.
experiment: LNP size and polydispersity measured with a Zetasizer Nano; type: physicochemical; conditions: LNP: ionizable lipid/DSPC/cholesterol/DMG-PEG2000 about 50/10/38.5/1.5, eGFP mRNA, dialyzed against TBS; in nm (unit assumed)
The answer should be a number; do not append a unit.

Use the examples below as a reference point.
INSERT INTO assay_data (compound, endpoint_result) VALUES
  ('CCCCCCCCC(CC)OC(=O)CCCCCCCN(CCCCCCCC(=O)OC(CCCCCCCC)CCCCCCCC)C(=O)OCCSSCCOC(=O)NCCN1CCCCCC1 (stereo not drawn)', 86.26),
  ('CCCCCC/C=C\COC(=O)CCCCCCCN(CCCCCCCC(=O)OC(CCCCCCCC)CCCCCCCC)C(=O)OCCSSCCOC(=O)NCCN(C)C', 111.97),
  ('CCCCCCCCCOC(=O)CCCCCCCN(CCCCCCCC(=O)OC(CCCCCCCC)CCCCCCCC)C(=O)OCCSSCCOC(=O)NCCN1CCCCCC1', 90.30),
  ('CCCCCCCCC(CCCCCCCC)OC(=O)CCCCCCCN(CCCCCC(=O)OC(CCCCCCCC)CCCCCCCC)C(=O)OCCSSCCOC(=O)NCCN1CCCCCC1', 101.50),
  ('CCCCCC/C=C\COC(=O)CCCCCCCN(CCCCCCCC(=O)OC(CCCCCCCC)CCCCCCCC)C(=O)OCCSSCCOC(=O)NCCN1CCCCCC1', 90.70),
  ('CCCCCCCCC(CC)OC(=O)CCCCCCCN(CCCCCCCC(=O)OC(CCCCCCCC)CCCCCCCC)C(=O)OCCSSCCOC(=O)NCCN(C)C (stereo not drawn)', 93.73),
  ('CCCCCCCCCOC(=O)CCCCCCCN(CCCCCCCC(=O)OC(CCCCCCCC)CCCCCCCC)C(=O)OCCSSCCOC(=O)NCCN(C)C', 103.23),
  ('CCCCCCCC/C=C\CCCCCCCC(=O)OCC(CNC(=O)OCCSSCCOC(=O)NCCN1CCCCCC1)OC(=O)CCCCCCC/C=C\CCCCCCCC (stereo not drawn) [ETG-23, reference compound]', 75.97);

Reported size, compound CCCCCCCCC(CCCCCCCC)OC(=O)CCCCCCCN(CCCCCC(=O)OC(CCCCCCCC)CCCCCCCC)C(=O)OCCSSCCOC(=O)NCCN(C)C : ____ 109.10

* * *

assay: LNP size and polydispersity measured with a Zetasizer Nano; type: physicochemical; conditions: LNP: ionizable lipid/DSPC/cholesterol/DMG-PEG2000 about 50/10/38.5/1.5, eGFP mRNA, dialyzed against TBS
Classification field: yes = PDI at or over 0.1; no = PDI under 0.1.

Take a look at these entries with their results.
INSERT INTO measurements (compound, class) VALUES
  ('CCCCCCCC/C=C\CCCCCCCC(=O)OCC(CNC(=O)OCCSSCCOC(=O)NCCN1CCCCCC1)OC(=O)CCCCCCC/C=C\CCCCCCCC (stereo not drawn) [ETG-23, reference compound]', 'no'),
  ('CCCCCCCCCOC(=O)CCCCCCCN(CCCCCCCC(=O)OC(CCCCCCCC)CCCCCCCC)C(=O)OCCSSCCOC(=O)NCCN1CCCCCC1', 'yes'),
  ('CCCCCCCCC(CC)OC(=O)CCCCCCCN(CCCCCCCC(=O)OC(CCCCCCCC)CCCCCCCC)C(=O)OCCSSCCOC(=O)NCCN1CCCCCC1 (stereo not drawn)', 'yes');

Could you verify whether the entry CCCCCCCCCOC(=O)CCCCCCCN(CCCCCCCC(=O)OC(CCCCCCCC)CCCCCCCC)C(=O)OCCSSCCOC(=O)NCCN(C)C shows PDI of no less than 0.1? no

Could you verify whether the entry CCCCCCCCC(CCCCCCCC)OC(=O)CCCCCCCN(CCCCCC(=O)OC(CCCCCCCC)CCCCCCCC)C(=O)OCCSSCCOC(=O)NCCN(C)C shows PDI of no less than 0.1? yes
